test system: Wolbachia pipientis; assay: Anti-Wolbachia Cell-Based Screen; type: functional; design: scale not given: in the data most compounds retested in dose-response had high values; conditions: 5 µM
Out of some 48,000 compounds screened, about 13,000 (27%) showed an effect of 50% or more. Some of the results follow.
Assay metric: Percent Effect (%)

[[record]]
compound = "COCCN(Cc1ccccn1)C(=O)C1CCCCCN1C (stereo unspecified)"
subject_of_test = "Wolbachia pipientis"
unit_of_measure = "%"
readout_number = -8.345

[[record]]
compound = "COc1cccc(C2CCCN2C(=O)c2ccc(=O)n(C)c2)c1 (stereo unspecified)"
subject_of_test = "Wolbachia pipientis"
unit_of_measure = "%"
readout_number = 0.747

[[record]]
compound = "CN(C)c1cccc(C(=O)N2CCCC2c2ncc3c(n2)CCNC3)c1.Cl (stereo unspecified)"
subject_of_test = "Wolbachia pipientis"
unit_of_measure = "%"
readout_number = 118.3

[[record]]
compound = "COc1ccccc1C(=O)N1CCCC1c1nncn1CC(C)C (stereo unspecified)"
subject_of_test = "Wolbachia pipientis"
unit_of_measure = "%"
readout_number = 2.233

[[record]]
compound = "COc1ccccc1C(=O)N1CCCC1c1ncc2c(n1)CCNC2.Cl (stereo unspecified)"
subject_of_test = "Wolbachia pipientis"
unit_of_measure = "%"
readout_number = 126.5

[[record]]
compound = "CCOc1ccccc1C(=O)N1CCCC1c1ncc2c(n1)CCNC2.Cl (stereo unspecified)"
subject_of_test = "Wolbachia pipientis"
unit_of_measure = "%"
readout_number = 7.885

